target: Mitogen-activated protein kinase 1 (Homo sapiens); experiment: DRUGMATRIX: Protein Serine/Threonine Kinase, ERK2 enzyme inhibition (substrate: Myelin Basic Protein); set-up: species or system Escherichia coli; settings: Not Active = under 50% inhibition at 10 µM
Sequence (P28482 whole entry): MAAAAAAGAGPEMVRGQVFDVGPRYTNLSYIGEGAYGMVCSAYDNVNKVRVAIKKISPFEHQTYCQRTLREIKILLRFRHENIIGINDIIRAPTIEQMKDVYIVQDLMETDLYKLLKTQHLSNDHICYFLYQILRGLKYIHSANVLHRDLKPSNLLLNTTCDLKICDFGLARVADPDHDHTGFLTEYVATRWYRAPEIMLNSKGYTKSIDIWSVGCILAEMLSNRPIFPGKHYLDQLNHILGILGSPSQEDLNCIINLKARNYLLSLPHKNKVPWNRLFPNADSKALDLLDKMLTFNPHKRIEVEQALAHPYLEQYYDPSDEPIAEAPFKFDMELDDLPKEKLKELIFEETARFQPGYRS
ENDPOINT_NAME: IC50

INSERT INTO results (compound, study_system, result) VALUES
  ('Cc1ccccc1N1C(=O)c2cc(S(N)(=O)=O)c(Cl)cc2NC1C (centres undefined)', 'Mitogen-activated protein kinase 1 (Homo sapiens)', 'Not Active'),
  ('CN(Cc1ccc(C(C)(C)C)cc1)Cc1cccc2ccccc12', 'Mitogen-activated protein kinase 1 (Homo sapiens)', 'Not Active'),
  ('CC(C)C(Br)C(=O)NC(N)=O (centres undefined)', 'Mitogen-activated protein kinase 1 (Homo sapiens)', 'Not Active'),
  ('CC(C)[C@@]1(NC(=O)[C@@H]2C[C@@H]3c4cccc5[nH]cc(c45)C[C@H]3N(C)C2)O[C@@]2(O)[C@@H]3CCCN3C(=O)[C@H](Cc3ccccc3)N2C1=O.CS(=O)(=O)O [DIHYDROERGOCRISTINE MESYLATE]', 'Mitogen-activated protein kinase 1 (Homo sapiens)', 'Not Active');

###

molecular target: Cytochrome P450 2C19 (Homo sapiens, UniProt P33261); conditions: bti-tn-5b1-4; note: in other assays of this panel Not Active means under 50% inhibition at 10 µM
Sequence (P33261 whole entry): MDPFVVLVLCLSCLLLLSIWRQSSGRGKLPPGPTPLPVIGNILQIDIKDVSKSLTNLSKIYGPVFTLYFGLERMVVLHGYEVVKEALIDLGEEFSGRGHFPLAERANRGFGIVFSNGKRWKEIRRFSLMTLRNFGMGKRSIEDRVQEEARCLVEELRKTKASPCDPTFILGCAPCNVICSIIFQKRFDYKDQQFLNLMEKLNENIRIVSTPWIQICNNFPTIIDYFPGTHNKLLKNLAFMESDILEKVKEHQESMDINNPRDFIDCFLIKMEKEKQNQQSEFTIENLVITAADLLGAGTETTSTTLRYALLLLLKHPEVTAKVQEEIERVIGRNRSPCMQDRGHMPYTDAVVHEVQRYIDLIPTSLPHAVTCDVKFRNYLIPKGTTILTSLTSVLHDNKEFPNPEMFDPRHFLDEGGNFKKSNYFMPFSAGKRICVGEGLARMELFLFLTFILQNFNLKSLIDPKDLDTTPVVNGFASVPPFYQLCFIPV
ENDPOINT_NAME: Ki

Observe how each entry below is paired with its result.
INSERT INTO results (molecule, endpoint_name, result) VALUES
  ('CNCCc1ccccn1 [BETAHISTINE]', 'Ki', 'Not Active'),
  ('Nc1nc2c(ncn2COCCO)c(=O)[nH]1 [ACYCLOVIR]', 'Ki', 'Not Active'),
  ('CC1Cc2ccccc2N1NC(=O)c1ccc(Cl)c(S(N)(=O)=O)c1 (stereo not given) [INDAPAMIDE]', 'Ki', 'Not Active'),
  ('Cc1c(C)c2c(c(C)c1O)CCC(C)(COc1ccc(CC3SC(=O)NC3=O)cc1)O2 (stereo not given) [TROGLITAZONE]', 'Ki', 'Not Active');

[Q] Any idea what Ki was measured for Cc1oncc1C(=O)Nc1ccc(C(F)(F)F)cc1 [LEFLUNOMIDE] ?
[A] Not Active

###

Target: Thromboxane-A synthase (Homo sapiens, UniProt P24557);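 note: enzyme inhibition assay with PGH2 supplied as substrate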; note: in other assays of this panel Not Active means under 50% inhibition at 10 µM
Sequence (P24557 whole entry): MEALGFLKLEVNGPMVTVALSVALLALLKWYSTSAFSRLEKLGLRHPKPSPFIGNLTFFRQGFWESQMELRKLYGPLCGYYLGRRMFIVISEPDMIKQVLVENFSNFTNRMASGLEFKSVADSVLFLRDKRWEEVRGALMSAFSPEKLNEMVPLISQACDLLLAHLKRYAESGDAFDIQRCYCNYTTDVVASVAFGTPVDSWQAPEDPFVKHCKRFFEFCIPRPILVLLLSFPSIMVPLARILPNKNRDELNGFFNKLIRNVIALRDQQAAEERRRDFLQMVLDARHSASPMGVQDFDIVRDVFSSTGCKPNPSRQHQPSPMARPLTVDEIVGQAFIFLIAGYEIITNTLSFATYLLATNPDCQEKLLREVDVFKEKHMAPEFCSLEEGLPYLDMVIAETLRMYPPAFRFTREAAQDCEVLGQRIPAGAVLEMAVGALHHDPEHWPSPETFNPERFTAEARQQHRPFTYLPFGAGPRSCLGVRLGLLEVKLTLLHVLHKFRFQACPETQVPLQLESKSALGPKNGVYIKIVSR
Experiment: biochemical
Format: tissue-based, Platelet
Details: platelet
ENDPOINT_NAME: IC50

Observe how each entry below is paired with its result.
INSERT INTO measurements (compound, study_system, result) VALUES
  ('C[C@]12CC[C@@H]3c4ccc(O)cc4CC[C@H]3[C@@H]1CCC2=O', 'Thromboxane-A synthase (Homo sapiens, UniProt P24557)', 'Not Active'),
  ('CC1(C)S[C@@H]2[C@H](NC(=O)Cc3ccccc3)C(=O)N2[C@H]1C(=O)O', 'Thromboxane-A synthase (Homo sapiens, UniProt P24557)', 'Not Active'),
  ('CC(C)(Oc1ccc(Cl)cc1)C(=O)O', 'Thromboxane-A synthase (Homo sapiens, UniProt P24557)', 'Not Active'),
  ('CN(C)CCCN1c2ccccc2Sc2ccc(Cl)cc21', 'Thromboxane-A synthase (Homo sapiens, UniProt P24557)', 'Not Active'),
  ('O=C1CC[C@@H](N2C(=O)c3ccccc3C2=O)C(=O)N1', 'Thromboxane-A synthase (Homo sapiens, UniProt P24557)', 'Not Active'),
  ('Cc1onc(O)c1CC(N)C(=O)O (racemic) [(R,S)-AMPA]', 'Thromboxane-A synthase (Homo sapiens, UniProt P24557)', 'Not Active'),
  ('CC(C)N1CCN(c2ccc(OCC3COC(Cn4cncn4)(c4ccc(Cl)cc4Cl)O3)cc2)CC1 (configuration not stated)', 'Thromboxane-A synthase (Homo sapiens, UniProt P24557)', 'Not Active'),
  ('C[C@H]1c2cccc(O)c2C(=O)C2=C(O)[C@]3(O)C(=O)C(C(N)=O)=C(O)[C@@H](N(C)C)[C@@H]3[C@@H](O)[C@@H]21.O', 'Thromboxane-A synthase (Homo sapiens, UniProt P24557)', 'Not Active');

[Q] Any idea what IC50 was measured for CCOC(=O)N1CCC(=C2c3ccc(Cl)cc3CCc3cccnc32)CC1 ?
[A] Not Active

[Q] Any idea what IC50 was measured for CCCCc1nc(Cl)c(CO)n1Cc1ccc(-c2ccccc2-c2nnn[nH]2)cc1 ?
[A] Not Active

[Q] Any idea what IC50 was measured for COc1cc2nc(N3CCN(C(=O)C4COc5ccccc5O4)CC3)nc(N)c2cc1OC (configuration not stated) ?
[A] Not Active

[Q] Any idea what IC50 was measured for CN(C)c1nc(N(C)C)nc(N(C)C)n1 ?
[A] Not Active

[Q] Any idea what IC50 was measured for CC1=C2C(=CO[C@H](C)[C@H]2C)C(O)=C(C(=O)O)C1=O ?
[A] Not Active

[Q] Any idea what IC50 was measured for CC(C)[C@@]1(NC(=O)[C@@H]2C[C@@H]3c4cccc5[nH]cc(c45)C[C@H]3N(C)C2)O[C@@]2(O)[C@@H]3CCCN3C(=O)[C@H](Cc3ccccc3)N2C1=O.CS(=O)(=O)O [DIHYDROERGOCRISTINE MESYLATE] ?
[A] Not Active

[Q] Any idea what IC50 was measured for CCCN1C[C@H](CSC)C[C@@H]2c3cccc4[nH]cc(c34)C[C@H]21 [PERGOLIDE] ?
[A] Not Active

[Q] Any idea what IC50 was measured for Nc1nc2c(ncn2CCC(CO)CO)c(=O)[nH]1 ?
[A] Not Active

[Q] Any idea what IC50 was measured for Nc1nc(N)nc(-c2cc(Cl)ccc2Cl)n1.O=C(O)/C=C\C(=O)O [IRSOGLADINE MALEATE] ?
[A] Not Active
